Reference source for all entries: ChEMBL document CHEMBL5360573

Please respond with reported remaining at 0.5 h, 2 µM for every item in the list.
assay: Metabolic stability in human plasma assessed as compound remaining at 2 uM measured after 30 mins by LC-MS/MS analysis; type: ADME, cell-free; settings: read-out: Stability
Hi! Could you send only the number? It should be in %, unit omitted.

## Task GET /values?readout=remaining at 0.5 h, 2 µM&item= O=C(/C=C/c1ccc(O)cc1)NCCc1cn(Cc2cccc(Br)c2)c2ccccc12
## Result 98.8

## Task Which value of remaining at 0.5 h, 2 µM has been reported for CC(C(O)c1ccc(O)cc1)N1CCC(Cc2ccccc2)CC1 (configuration not stated) in the records?
## Result 89.6

====

experiment: Cmax in C57 mouse at 10 mg/kg, po measured for 20 mins by LC-MS/MS analysis; type: ADME, organism-based; design: dose 10 mg/kg, time 20 min, route po; conditions: in vivo
parameter measured: Cmax (ng/mL)
Write down the numeric answer in ng/mL and omit the unit.

## Task Look at this molecule and give its reported Cmax. O=C(/C=C/c1ccc(O)cc1)NCCc1cn(Cc2cccc(Br)c2)c2ccccc12
## Result 182

====

experiment: Half life in C57 mouse at 1 mg/kg, iv measured for 20 mins by LC-MS/MS analysis; type: ADME, organism-based; settings: in vivo
parameter measured: half-life (min)
// return numeric value only (unit: min, not printed)

## Task What value of half-life has been reported for the following compound? O=C(/C=C/c1ccc(O)cc1)NCCc1cn(Cc2cccc(Br)c2)c2ccccc12
## Result 40.2

====

assay: MRT (0 to t) in C57 mouse at 1 mg/kg, iv measured for 20 mins by LC-MS/MS analysis; format: ADME, organism-based; settings: in vivo
parameter measured: MRT last at 20 min (min)
Respond with the bare value in min.

## Task Fill blank: measured MRT last at 20 min of the molecule O=C(/C=C/c1ccc(O)cc1)NCCc1cn(Cc2cccc(Br)c2)c2ccccc12 is ____.
## Result 26.4

====

assay: Metabolic stability in human plasma assessed as compound remaining at 2 uM measured after 120 mins by LC-MS/MS analysis; type: ADME, cell-free; details: read-out: Stability
Would you kindly list remaining at 2 h, 2 µM for each of these compounds?
Give just the numeric value; % need not be written.

## Task Field request: remaining at 2 h, 2 µM | item: CC(C(O)c1ccc(O)cc1)N1CCC(Cc2ccccc2)CC1 (configuration not stated)
## Result 91.3

## Task Which remaining at 2 h, 2 µM value belongs to O=C(/C=C/c1ccc(O)cc1)NCCc1cn(Cc2cccc(Br)c2)c2ccccc12 ?
## Result 100

====

assay: AUC (0 to infinity) in C57 mouse at 10 mg/kg, po measured for 20 mins by LC-MS/MS analysis; assay type: ADME, organism-based; set-up: dose 10 mg/kg, time 20 min, route po; conditions: in vivo
parameter measured: AUC(0-inf) (ng·h/mL)
Provide the reading as a plain figure in ng·h/mL.

## Task Dear colleague, I am looking for the recorded AUC(0-inf) of the following compound: O=C(/C=C/c1ccc(O)cc1)NCCc1cn(Cc2cccc(Br)c2)c2ccccc12
## Result 269

====

tested on: SH-SY5Y; test: Neuroprotective activity against NMDA-induced cell injury in human SH-SY5Y cells assessed as cell viability at 0.05 uM incubated for 6 hrs followed by NMDA treatment for 0.5 hrs and subsequent replacement of fresh medium without compounds by MTT assay relative to control; format: functional; settings: time 6.5 hrs, read-out: Activity
Exercise: for every item that follows, state its recorded viability at 0.05 µM.
The figure you give is taken to be in %; do not add the unit.

## Task Given CCn1cc(CCNC(=O)/C=C/c2ccc(O)cc2)c2ccccc21 , state its recorded viability at 0.05 µM.
## Result 19.9

## Task Find the recorded viability at 0.05 µM belonging to COc1ccc(Cn2cc(CCNC(=O)/C=C/c3ccc(O)cc3)c3ccccc32)cc1 and report it.
## Result 18.6

## Task So what does the record say about viability at 0.05 µM for O=C(Cc1ccc(O)cc1)NCCc1cn(Cc2ccccc2)c2ccccc12 ?
## Result 21.1

## Task Which viability at 0.05 µM is reported for this compound? O=C(/C=C/c1ccc(O)c(O)c1)NCCc1cn(Cc2ccccc2)c2ccccc12
## Result 34.8

## Task Could you share which viability at 0.05 µM value was measured for CCCCn1cc(CCNC(=O)/C=C/c2ccc(O)cc2)c2ccccc21 ?
## Result 24.3

## Task Query: viability at 0.05 µM; subject: O=C(/C=C/c1ccc(O)cc1)NCCc1cn(Cc2cccc(Br)c2)c2ccccc12
## Result 35.7

## Task So what's the measured viability at 0.05 µM for this one? O=C(/C=C/c1ccc(O)cc1)NCCc1cn(Cc2ccccc2)c2ccccc12
## Result 33

## Task Entry O=C(/C=C/c1ccc(O)cc1)NCCc1cn(CCc2ccccc2)c2ccccc12 : reported viability at 0.05 µM = ?
## Result 25.9

## Task Any idea what its viability at 0.05 µM is? The compound is O=C(/C=C/c1ccc(O)cc1)NCCc1cn(Cc2ccccc2Br)c2ccccc12
## Result 45.1

## Task Given the entry O=C(CCc1ccc(O)cc1)NCCc1cn(Cc2ccccc2)c2ccccc12 , report its measured viability at 0.05 µM.
## Result 45.3

## Task Value lookup for viability at 0.05 µM; key = O=C(/C=C/c1ccc(O)cc1)NCCc1cn(CCCc2ccccc2)c2ccccc12
## Result 20.1

====

system: SH-SY5Y; experiment: Neuroprotective activity against NMDA-induced cell injury in human SH-SY5Y cells assessed as cell viability at 0.05 uM incubated for 6 hrs followed by NMDA treatment for 0.5 hrs and subsequent replacement of fresh medium without compounds by MTT assay relative to control; type: functional; conditions: time 6.5 hrs, read-out: Activity
Hi there, I'd appreciate the recorded viability at 0.05 µM for every entry that follows.
Numbers only here, please. The scale is %.

## Task Given the compound O=C(/C=C/c1ccc(O)cc1)NCCc1cn(Cc2cccc(Cl)c2)c2ccccc12 , what is its reported viability at 0.05 µM?
## Result 32.2

## Task Which viability at 0.05 µM reading was recorded for the compound Cc1ccc(Cn2cc(CCNC(=O)/C=C/c3ccc(O)cc3)c3ccccc32)cc1 ?
## Result 19.4

## Task Please give the measured viability at 0.05 µM for this compound: CC(C(O)c1ccc(O)cc1)N1CCC(Cc2ccccc2)CC1 (stereo not given) [IFENPRODIL]
## Result 29.4

## Task Could you tell me which viability at 0.05 µM is on file for O=C(/C=C/c1ccc(O)cc1)NCCc1cn(Cc2ccccc2F)c2ccccc12 ?
## Result 32.4

## Task Give the measured viability at 0.05 µM of O=C(NCCc1cn(Cc2ccccc2)c2ccccc12)c1ccc(O)c(O)c1 .
## Result 29.4

====

system: SH-SY5Y; experiment: Neuroprotective activity against NMDA-induced cell injury in human SH-SY5Y cells assessed as cell viability at 0.05 uM incubated for 6 hrs followed by NMDA treatment for 0.5 hrs and subsequent replacement of fresh medium without compounds by MTT assay relative to control; format: functional; conditions: time 6.5 hrs, read-out: Activity
For each record, check the reported viability at 0.05 µM: if it is below 20% write 1, else write -1.

## Task Confirm or reject: viability at 0.05 µM of O=C(/C=C/c1ccccc1)NCCc1cn(Cc2ccccc2)c2ccccc12 lies strictly below 20%
## Result -1

## Task is_below(viability at 0.05 µM, 20%) for O=C(/C=C/c1ccc(O)cc1)NCCc1cn(Cc2ccc(Cl)cc2)c2ccccc12 ?
## Result -1

## Task Hello, is viability at 0.05 µM of the following compound strictly smaller than 20%? CC(C)Cn1cc(CCNC(=O)/C=C/c2ccc(O)cc2)c2ccccc21
## Result -1

## Task Does the reported viability at 0.05 µM of the following compound sit strictly below 20%? CCCn1cc(CCNC(=O)/C=C/c2ccc(O)cc2)c2ccccc21
## Result 1

## Task Please determine if O=C(/C=C/c1ccc(O)cc1)NCCc1cn(Cc2ccc(F)cc2)c2ccccc12 is below 20% in terms of viability at 0.05 µM.
## Result -1

## Task Take the compound O=C(/C=C/c1ccc(O)cc1)NCCc1cn(Cc2ccccc2Cl)c2ccccc12 and say whether its viability at 0.05 µM is less than 20%.
## Result 1

## Task Lab note: viability at 0.05 µM threshold 20%. Does this compound come in strictly under it? O=C(/C=C/c1ccc(O)cc1)NCCc1cn(Cc2ccc(Br)cc2)c2ccccc12
## Result -1

## Task Is it true that viability at 0.05 µM reported for O=C(NCCc1cn(Cc2ccccc2)c2ccccc12)c1ccc(O)cc1 is less than 20%?
## Result -1

## Task A record lists O=C(/C=C/c1ccc(O)cc1)NCCc1cn(Cc2cccc(F)c2)c2ccccc12 . Is its viability at 0.05 µM below 20%?
## Result -1
